Provide the recorded TGI for the entries that follow.
# System: UACC-62 melanoma
# PROTOCOL SUMMARY: NCI tumour cell line growth inhibition, 48 h
Where a SMILES comes first, the peptide text is derived from it. [ ]: non-standard residue; d: D form. The star is where a group is joined. AllylGly = C=CC[CH](N)C(=O)O; Boc = CC(C)(C)OC(=O)*; OtBu = CC(C)(C)O*

Recorded TGI, per entry:
* CC(=O)C(=[N+]=[N-])C(=O)OC(C)(C)C#N | > 10 µM
* C=CCC(NC(=O)C(CC(=O)OC(C)(C)C)NC(=O)OC(C)(C)C)C(=O)OC (centres undefined) (Boc-Asp(OtBu)-[AllylGly]-OMe; configuration not given here) | > 100 µM

Items follow; give TGI for each.
1. COc1ccc(/C(=N/NC(=O)NN)C(c2ccc(OC)cc2)C2(O)CNc3c(Cl)cc(Cl)cc32)cc1 (centres undefined)
2. CCOC(=O)CCC(NC(=O)c1ccc(Oc2nc3ccc(C(F)(F)F)cc3nc2-c2ccccc2)cc1)C(=O)OCC (centres undefined)
3. CC1(C)C(=O)C(C)(C)C12SSC1(S2)C(C)(C)C(=O)C1(C)C
4. COc1ccc(C2=NNC(=O)OC2c2ccccc2)cc1 (centres undefined)
5. CN(NC(=O)CCCl)C1=NCCN1

1. > 100 µM
2. > 100 µM
3. > 100 µM
4. > 100 µM
5. > 100 µM

Look up TGI for the entries below, preserving their order.
1. COCC1OC(OC2C3=C(C(C)C)CCC3(C)/C=C3\C(CCC3(O)COC)C(C)C2O)C(O)C2OC3OC12OC3(C)C1CO1 (centres undefined)
2. OC12COc3ccccc3C1Oc1ccccc1C2 (centres undefined)

1: > 100 µM; 2: > 100 µM

* * *

# Test system: NCI-H522 lung
# PROTOCOL SUMMARY: NCI tumour cell line growth inhibition, 48 h
Answer each item with its documented TGI.

# example entries with known answers
* CC(C)(C)N(Cc1ccc2c(c1)OCO2)C(=O)/C=C\S(=O)c1ccccc1 (centres undefined) | 2.14 µM
* CC1(C)CC(=O)C2=C(C1)c1c(ccc3ccccc13)NC2c1cn(Cc2ccc(Cl)cc2)c2ccccc12 (centres undefined) | > 100 µM
* COc1ccc2nc3ccc(OC)cc3c(S(=O)(=O)Cc3ccc([N+](=O)[O-])cc3)c2c1 | > 100 µM
* Brc1ccc(-c2nnc(-c3nn(-c4ccccc4)c4nc5ccccc5nc34)o2)cc1 | > 100 µM
* CCOC(=O)c1sc2nc3sc(N=Nc4ccc(Cl)cc4)c(O)n3c(=S)c2c1C | > 100 µM

Give TGI for each listed item.
1. C[C@H](Nc1c(O)c2c(c(O)c1Cl)C(=O)C=CC2=O)C(=O)Nc1ccc([N+](=O)[O-])cc1
2. COc1ccc(/C(=N/NC(=O)NN)C(c2ccc(OC)cc2)C2(O)CNc3c(Cl)cc(Cl)cc32)cc1 (centres undefined)
3. COc1ccc(/C(Cl)=C(\C=O)c2ccc([N+](=O)[O-])cc2)cc1OC
4. CCSCC(N)C(=O)O (centres undefined)
5. O=S(O)CCCCCSSCCCCSSCCCCCS(=O)O
6. COc1ccc(C2SCC(=O)N2c2ccc(-n3c(-c4ccccc4)nc4ccccc4c3=O)cc2)cc1OC (centres undefined)
7. CCNCC(=O)O[C@]1(CC)C(=O)OCc2c1cc1n(c2=O)Cc2cc3ccccc3nc2-1
8. NC(=O)N1N=C2c3ccccc3CC[C@@H]2C1c1ccccc1 (some centres undefined)

["6.65 µM", "> 100 µM", "> 35.8 µM", "> 100 µM", "> 100 µM", "> 100 µM", "7.97 µM", "> 100 µM"]

Please look at the items below and tell me TGI for each one, in order.
1. CC(N)C(C)Cc1ccccc1 (centres undefined)
2. Clc1ccc(Oc2ccc(N=Cc3ccc(Cl)cc3Cl)cc2Cl)cc1
3. CCC(C)n1cc(C)c2c(C(=O)NCc3c(C)cc(C)[nH]c3=O)cc(Br)cc21 (centres undefined)
4. O=C1OCC(c2cccs2)=C1Cl
5. CC(C)(C)c1ccc(-c2nc3ccc([N+](=O)[O-])cc3c(=O)o2)cc1

1: > 100 µM; 2: 92 µM; 3: > 100 µM; 4: > 100 µM; 5: 40.7 µM

TGI reading for CC(C)(C)c1nc2c(o1)C(=O)c1ccccc1C2=O : 3.85 µM

The measurements presented in this section are drawn from PubChem BioAssay (NCI).
